- assayTarget: Bcl-2 protein (Recombinant Human Bcl-2 Protein) (Homo sapiens, UniProt P10415)
- Construct: purchased Novus NBP2-34889
- Sequence (P10415 whole entry): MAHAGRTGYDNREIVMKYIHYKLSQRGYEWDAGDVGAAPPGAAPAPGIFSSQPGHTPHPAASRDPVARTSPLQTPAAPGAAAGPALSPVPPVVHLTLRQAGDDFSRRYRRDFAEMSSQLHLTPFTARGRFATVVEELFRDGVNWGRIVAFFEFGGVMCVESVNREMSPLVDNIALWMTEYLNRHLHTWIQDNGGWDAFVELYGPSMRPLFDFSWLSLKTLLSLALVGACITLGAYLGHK
- testName: Binding evaluation of mixture library compounds to Bcl-2 using AS-MS (affinity selection mass spectrometry)
- measurementSetup: n = 1
For each entry below, report its ASMS ratio (%) value.
Report only the number, with the unit % understood.

## Input What does the data say about its ASMS ratio (%)? Entry: `CCOc1cncc(-c2cc(C(=O)N3CCN(c4ccc(C(=O)NS(=O)(=O)C(C)(C)C)nn4)CC3)cc(C(C)(C)C)c2)c1`
## Output 0.0

## Input What does the data say about its ASMS ratio (%)? Entry: `CCOc1cccc(-c2ccc(C(=O)N3CCN(c4ccc(C(=O)NS(=O)(=O)c5ccc(NCCSc6ccccc6)c(C(F)(F)F)c5)nn4)CC3)cc2C)c1`
## Output 21.6

## Input What does the data say about its ASMS ratio (%)? Entry: `CCOc1cccc(-c2ccc(C(=O)N3CCN(c4ccc(C(=O)NS(=O)(=O)C(C)(C)C)cc4)CC3)c3ccccc23)c1`
## Output 0.0

## Input What does the data say about its ASMS ratio (%)? Entry: CCOc1cccc(-c2ccc(C(C)N3CCN(c4ccc(C(=O)NS(C)(=O)=O)cc4)CC3)cc2)c1 (stereo not drawn)
## Output 0.8

## Input What does the data say about its ASMS ratio (%)? Entry: `CCOc1cccc(-c2cc(CN3CCN(c4ccc(C(=O)NS(=O)(=O)C(C)(C)C)nn4)CC3)cc(OCC)c2)c1`
## Output 0.0

## Input What does the data say about its ASMS ratio (%)? Entry: `CCOc1cncc(-c2ccccc2CCC(=O)N2CCN(c3ccc(C(=O)NS(=O)(=O)c4ccc(NCCSc5ccccc5)c(C(F)(F)F)c4)cc3)CC2)c1`
## Output 0.1
